# ASSAY SYSTEM: P2X purinoceptor 7 (Rattus norvegicus, UniProt Q64663)
# Sequence (Q64663 whole entry): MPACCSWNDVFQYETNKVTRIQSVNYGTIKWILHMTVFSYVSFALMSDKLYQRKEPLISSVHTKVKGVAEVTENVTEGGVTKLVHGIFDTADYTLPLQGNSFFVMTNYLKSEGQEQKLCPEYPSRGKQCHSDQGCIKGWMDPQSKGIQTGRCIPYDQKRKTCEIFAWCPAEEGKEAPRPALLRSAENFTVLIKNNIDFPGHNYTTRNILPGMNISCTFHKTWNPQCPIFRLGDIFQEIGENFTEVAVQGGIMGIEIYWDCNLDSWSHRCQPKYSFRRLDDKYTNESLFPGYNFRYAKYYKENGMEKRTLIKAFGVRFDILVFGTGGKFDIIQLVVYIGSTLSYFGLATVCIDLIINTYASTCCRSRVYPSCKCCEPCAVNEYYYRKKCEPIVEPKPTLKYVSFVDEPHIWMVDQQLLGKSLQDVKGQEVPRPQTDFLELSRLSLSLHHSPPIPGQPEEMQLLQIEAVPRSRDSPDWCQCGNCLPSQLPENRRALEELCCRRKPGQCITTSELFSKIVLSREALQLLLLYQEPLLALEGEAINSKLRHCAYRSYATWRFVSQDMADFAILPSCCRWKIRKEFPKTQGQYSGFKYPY
# ASSAY REMARKS: Antagonist activity at rat P2X7 receptor assessed as inhibition of ATP-induced Ca2+ flux by FLIPR assay
REPORTED METRIC: pIC50
Give bare numbers, as −log10 of the molar value.

| STRUCTURE SMILES STRING | pIC50 |
| --- | --- |
| O=C(NCC1(N2CCN(c3ccccc3)CC2)CCOCC1)c1cccnc1Sc1ccccc1 | 7.20 |

Continue with the next compound.
Prompt line: Which pIC50 is reported for this compound? CN1CCc2c(cccc2C(=O)NCC2(N3CCN(c4ccccc4)CC3)CCCCC2)C1
Response line: 7.80

---

# ASSAY REMARKS: Plasma protein binding in human by equilibrium dialysis method
# Format: ADME, cell-free
# CONDITION DETAILS: read-out: PPB (converted)
Provide the recorded fraction unbound for the entries that follow.
One number for each entry.

| STRUCTURE SMILES STRING | EXPERIMENTAL RESULT |
| --- | --- |
| CN1CCc2c(cccc2C(=O)NCC2(N3CCN(c4ccccc4)CC3)CCCCC2)C1 | 0.165 |

Prompt line: Which fraction unbound is reported for this molecule? O=C(NCC1(N2CCN(c3ccccc3)CC2)CCOCC1)c1cccnc1Sc1ccccc1
Response line: 0.022

---

# ASSAY SYSTEM: Sodium-dependent dopamine transporter (Homo sapiens)
# Sequence (Q01959 whole entry): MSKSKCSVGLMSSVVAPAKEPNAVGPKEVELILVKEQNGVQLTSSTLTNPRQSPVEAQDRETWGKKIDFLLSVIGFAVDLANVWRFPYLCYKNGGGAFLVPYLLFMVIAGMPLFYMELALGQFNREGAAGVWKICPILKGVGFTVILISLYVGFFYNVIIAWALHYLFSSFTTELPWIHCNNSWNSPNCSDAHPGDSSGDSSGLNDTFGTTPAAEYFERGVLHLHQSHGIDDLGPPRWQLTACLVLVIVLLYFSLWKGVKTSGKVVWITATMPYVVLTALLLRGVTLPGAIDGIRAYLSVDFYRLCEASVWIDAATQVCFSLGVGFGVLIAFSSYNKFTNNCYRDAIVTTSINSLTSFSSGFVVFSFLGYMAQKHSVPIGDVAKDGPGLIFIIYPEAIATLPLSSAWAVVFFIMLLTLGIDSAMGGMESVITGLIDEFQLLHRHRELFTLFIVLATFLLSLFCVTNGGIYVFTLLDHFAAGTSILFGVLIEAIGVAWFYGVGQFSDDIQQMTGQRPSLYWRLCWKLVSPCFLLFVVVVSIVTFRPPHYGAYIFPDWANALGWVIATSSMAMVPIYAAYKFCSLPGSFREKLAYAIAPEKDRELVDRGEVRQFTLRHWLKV
REPORTED METRIC: pIC50
Give bare numbers, as −log10 of the molar value.

Prompt line: Which pIC50 is reported for this compound? CN1CCc2c(cccc2C(=O)NCC2(N3CCN(c4ccccc4)CC3)CCCCC2)C1
Response line: 6.54

---

# ASSAY REMARKS: Extraction ratio in human liver microsomes at 1 uM by LC/MS/MS analysis
# Type: ADME, Microsome
# CONDITION DETAILS: read-out: ERH
REPORTED METRIC: hepatic extraction ratio at 1 µM
Numbers only.

Prompt line: Which hepatic extraction ratio at 1 µM is reported for this compound? CN1CCc2c(cccc2C(=O)NCC2(N3CCN(c4ccccc4)CC3)CCCCC2)C1
Response line: 0.9

---

# ASSAY REMARKS: Protein binding in rat brain
# Assay type: ADME, tissue-based
# CONDITION DETAILS: brain tissue, read-out: PB (converted)
REPORTED METRIC: fraction unbound

| STRUCTURE SMILES STRING | EXPERIMENTAL RESULT |
| --- | --- |
| CN1CCc2c(cccc2C(=O)NCC2(N3CCN(c4ccccc4)CC3)CCCCC2)C1 | 0.024 |

Prompt line: Which fraction unbound is reported for this compound? O=C(NCC1(N2CCN(c3ccccc3)CC2)CCOCC1)c1cccnc1Sc1ccccc1
Response line: 0.017

---

# ASSAY REMARKS: Apparent permeability from apical to basolateral side in human Caco2 cells at 1 uM after 60 mins by LC/MS/MS analysis
# Format: ADME, cell-based
# CONDITION DETAILS: Caco-2
REPORTED METRIC: Papp A→B at 1 h, 1 µM (×10⁻⁶ cm/s)
Numbers only, in ×10⁻⁶ cm/s.

Prompt line: Which Papp A→B at 1 h, 1 µM is reported for this compound? CN1CCc2c(cccc2C(=O)NCC2(N3CCN(c4ccccc4)CC3)CCCCC2)C1
Response line: 11
